Where these numbers come from: patent US9957264B2

tgt: JAK2 (recombinant purified GST-tagged catalytic domain) (Homo sapiens (Human), UniProt O60674)
Sequence (O60674 849-1124): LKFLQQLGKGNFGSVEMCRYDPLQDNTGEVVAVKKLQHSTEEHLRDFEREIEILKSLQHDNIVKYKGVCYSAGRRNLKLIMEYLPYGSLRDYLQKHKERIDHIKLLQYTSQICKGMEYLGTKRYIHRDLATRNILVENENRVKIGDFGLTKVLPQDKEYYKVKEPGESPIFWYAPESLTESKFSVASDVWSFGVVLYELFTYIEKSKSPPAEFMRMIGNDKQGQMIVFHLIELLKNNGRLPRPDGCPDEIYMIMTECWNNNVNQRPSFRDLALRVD
protocol-notes: Jak Biochemical HTRF Assay (JAK2)
condition-info: [ATP] 8.5 μM
pIC50: −log10 of the molar value.
parameter-measured: pIC50

Example results:
CN(C)S(=O)(=O)c1ccc(Nc2nn(C3(CC#N)CCN(Cc4ccccc4)CC3)c3cc[nH]c(=O)c23)cc1 | 9.42
CC(C)(C)OC(=O)N1CCC(CC#N)(n2nc(Nc3ccc4c(c3)CCC4=O)c3c(=O)[nH]ccc32)CC1 | 9.21

P. CC(C)(C)OC(=O)N1CCC(CC#N)(n2nc(Nc3ccc([C@@]4(C(F)(F)F)CCCCN4)cc3)c3c(=O)[nH]ccc32)CC1 (single isomer, unassigned)
Q. Cc1cc(Nc2nn([C@]3(CC#N)CCOC[C@@H]3F)c3cc[nH]c(=O)c23)ccc1C(=O)N1CCOCC1 (single isomer, unassigned)
R. CC(C)(C)N1Cc2cc(Nc3nn(C4(CC#N)CCCCC4)c4cc[nH]c(=O)c34)ccc2S1(=O)=O
S. CN(C)S(=O)(=O)c1ccc(Nc2nn(C3(CC#N)CCN(Cc4c(F)cccc4F)CC3)c3cc[nH]c(=O)c23)cc1
rank_up(items): orders items by reported pIC50 in ascending numerical order. Your reply should list the labels following the order given in the request.
R, P, S, Q

* * *

tgt: JAK2 (recombinant purified GST-tagged catalytic domain) (Homo sapiens (Human), UniProt O60674)
protocol-notes: Jak Biochemical HTRF Assay (JAK2)
condition-info: [ATP] 8.5 μM
pIC50: −log10 of the molar value.
parameter-measured: pIC50

CC1(C)CCCC1S(=O)(=O)c1ccc(Nc2nn([C@]3(CC#N)CCCOC3)c3cc[nH]c(=O)c23)cc1 (stereo partly shown) | 8.92

A. Cc1cc(Nc2nn([C@]3(CC#N)CCCOC3)c3cc[nH]c(=O)c23)ccc1C(=O)N1CC[C@@H](F)C1
B. CC(C)(C)OC(=O)N1CCC(CC#N)(n2nc(Nc3ccc(C(F)(F)F)cc3)c3c(=O)[nH]ccc32)CC1
C. CCNc1nn(C2(CC#N)CCN(C(=O)OC(C)(C)C)CC2)c2cc[nH]c(=O)c12
Which order do these items take when sorted by rising pIC50? List them. Write the labels in rank order as requested.
C, B, A
(C: 7.22, B: 7.70, A: 9.00)

* * *

tgt: JAK2 (recombinant purified GST-tagged catalytic domain) (Homo sapiens (Human), UniProt O60674)
protocol-notes: Jak Biochemical HTRF Assay (JAK2)
condition-info: [ATP] 8.5 μM
pIC50: −log10 of the molar value.
parameter-measured: pIC50

Check out these entries, answers already filled in.
CN1Cc2cc(Nc3nn([C@]4(CC#N)CC[C@@H](C(=O)OC(C)(C)C)OC4)c4cc[nH]c(=O)c34)ccc2S1(=O)=O [Example 5-55] | 9.92
CC(C)(C)N[C@H](c1ccc(Nc2nn([C@]3(CC#N)CCOC[C@@H]3F)c3cc[nH]c(=O)c23)cc1)C(F)(F)F (single isomer, unassigned) [Example 5-269] | 10.05
N#CC[C@@]1(n2nc(Nc3ccc(C(N4CCCC4)C(F)(F)F)cc3)c3c(=O)[nH]ccc32)CCCOC1 (single isomer, unassigned) [Example 5-198] | 9.41
CO[C@@H](c1ccc(Nc2nn([C@]3(CC#N)CC[C@@H](C(=O)OC(C)(C)C)OC3)c3cc[nH]c(=O)c23)cc1)C(F)(F)F (single isomer, unassigned) [Example 21-8] | 8.99
CC(C)(C)OC(=O)N1CC[C@](CC#N)(n2nc(Nc3ccc(S(C)(=O)=O)cc3)c3c(=O)[nH]ccc32)[C@@H](F)C1 (single isomer, unassigned) [Example 5-14] | 7.75
COC(=O)N1CCC(CC#N)(n2nc(Nc3ccc(C(F)(F)F)cc3)c3c(=O)[nH]ccc32)CC1 [Example 5-147] | 8.53
CC(C)(C)OC(=O)[C@@H]1CC[C@@](CC#N)(n2nc(Nc3ccc4c(c3)CN(CC(F)(F)F)S4(=O)=O)c3c(=O)[nH]ccc32)CO1 [Example 5-44] | 9.43
C[C@@H]1CCCC1OC(=O)N1CCC(CC#N)(n2nc(Nc3ccc(S(=O)(=O)N(C)C)cc3)c3c(=O)[nH]ccc32)CC1 (mixture of isomers) [Example 11-2] | 8.77

1. CN(C(C)(C)C)S(=O)(=O)c1ccc(Nc2nn(C3(CC#N)CCN(C(=O)C(C)(F)F)CC3)c3cc[nH]c(=O)c23)cc1 [Example 5-58]
2. Cc1cc(Nc2nn([C@]3(CC#N)CC[C@@H](C(=O)OC(C)(C)C)OC3)c3cc[nH]c(=O)c23)ccc1C(=O)N1CCCC1 [Example 20-7]
Of 1 and 2 , which one carries the higher reported pIC50? Give the chosen item's label as your response.
1

a. CN(C)S(=O)(=O)c1ccc(Nc2nn(C3(CC#N)CCN(C(=O)CC#N)CC3)c3cc[nH]c(=O)c23)cc1 [Example 9-25]
b. COCC(=O)N1CCC(CC#N)(n2nc(Nc3ccc(S(=O)(=O)N(C)C)cc3)c3c(=O)[nH]ccc32)CC1 [Example 9-3]
Which entry has a larger number for pIC50, a or b ? To answer, give the label that identifies your chosen option.
a
